Test system: SMN2 minigene mRNA (SMN2-A minigene) in HEK293H cells
ASSAY PROTOCOL: SMN2 minigene mRNA splicing RT-qPCR assay in cultured cells
Assay type: cell-based, human
CONDITION: Homo sapiens, HEK293-H; concentration increasing full length SMN2 mRNA 1.5-fold relative to vehicle-treated cells; HEK293H cells with SMN2-A minigene, 24 hours, 7-point concentration data; read-out: EC1.5x for production of full length SMN2 mRNA
VALUE KIND: EC (1.5-fold increase)

[[record]]
compound_structure_string = "COc1ccc(-c2cc(=O)n3cc(N4CCC(CN5CCCC5)CC4)ccc3n2)cc1OC"
assayed_system = "SMN2 minigene mRNA (SMN2-A minigene) in HEK293H cells"
recorded_measurement = "0.3 to 1 µM"

[[record]]
compound_structure_string = "COc1ccc(-c2cc(=O)n3cc(C4CCNCC4)cc(C)c3n2)cc1OC"
assayed_system = "SMN2 minigene mRNA (SMN2-A minigene) in HEK293H cells"
recorded_measurement = "< 0.1 µM"

[[record]]
compound_structure_string = "Cc1cn2nc(-c3cc(=O)n4cc(C5=CCNCC5)cc(C)c4n3)cc2c(C)n1"
assayed_system = "SMN2 minigene mRNA (SMN2-A minigene) in HEK293H cells"
recorded_measurement = "< 0.1 µM"


-- ask Using the record for CCc1nc(C)cn2nc(-c3cc(=O)n4cc(C5CCNCC5)cc(C)c4n3)cc12 , state its measured EC (1.5-fold increase).
-- reply < 0.1 µM

-- ask Please give measured EC (1.5-fold increase) of the following entry: CCN1CC=C(c2cc(C)c3nc(-c4cc5c(C)nc(C)cn5n4)cc(=O)n3c2)CC1
-- reply < 0.1 µM

-- ask Dear colleague, please send me the reported EC (1.5-fold increase) for COc1ccc(-c2cc(=O)n3cc(N4CCN[C@@H](C)C4)ccc3n2)cc1 when you can.
-- reply 0.3 to 1 µM

-- ask Using known records, supply EC (1.5-fold increase) for C[C@H]1CN(c2ccc3nc(-c4ccc5c(c4)OCCO5)cc(=O)n3c2)CCN1
-- reply 1 to 3 µM

-- ask Provide one value: measured EC (1.5-fold increase) of O=c1cc(-c2cc(F)cc(C(F)(F)F)c2)nc2ccc(N3CCNCC3)cn12
-- reply 0.3 to 1 µM

-- ask Annotate the compound CCc1nc(C)cn2nc(-c3cc(=O)n4cc(C5CCN(CC)CC5)ccc4n3)cc12 with its measured EC (1.5-fold increase).
-- reply < 0.1 µM

* * *

Each record here notes measured EC (1.5-fold increase).
Test system: SMN2 minigene mRNA (SMN2-A minigene) in HEK293H cells
ASSAY PROTOCOL: SMN2 minigene mRNA splicing RT-qPCR assay in cultured cells
Format: cell-based, human
CONDITION: Homo sapiens, HEK293-H; concentration increasing full length SMN2 mRNA 1.5-fold relative to vehicle-treated cells; HEK293H cells with SMN2-A minigene, 24 hours, 7-point concentration data; read-out: EC1.5x for production of full length SMN2 mRNA

[[record]]
molecule = "Cc1cn2cc(-c3cc(=O)n4cc(N5CCN[C@H](C)C5)ccc4n3)cc(Cl)c2n1 [Compound 290]"
assayed_system = "SMN2 minigene mRNA (SMN2-A minigene) in HEK293H cells"
value_kind = "EC (1.5-fold increase)"
recorded_measurement = "< 0.1 µM"

[[record]]
molecule = "COc1ccc(-c2cc(=O)n3cc(C4=CCN(C5COC5)CC4)ccc3n2)cc1OC [Compound 364]"
assayed_system = "SMN2 minigene mRNA (SMN2-A minigene) in HEK293H cells"
value_kind = "EC (1.5-fold increase)"
recorded_measurement = "1 to 3 µM"

[[record]]
molecule = "CCc1nc(C)cn2nc(-c3cc(=O)n4cc(C5CCN(C)CC5)cc(C)c4n3)cc12 [Compound 774]"
assayed_system = "SMN2 minigene mRNA (SMN2-A minigene) in HEK293H cells"
value_kind = "EC (1.5-fold increase)"
recorded_measurement = "< 0.1 µM"


Field: next molecule
-- ask Fill in EC (1.5-fold increase) for Cn1ncc2cc(-c3cc(=O)n4cc(C5=CCN(CCO)CC5)ccc4n3)ccc21 [Compound 471] tested with SMN2 minigene mRNA (SMN2-A minigene) in HEK293H cells.
-- reply < 0.1 µM

* * *

The reader will find reported EC (1.5-fold increase) values listed item by item below.
Tested on: SMN2 minigene mRNA (SMN2-A minigene) in HEK293H cells
ASSAY PROTOCOL: SMN2 minigene mRNA splicing RT-qPCR assay in cultured cells
Format: cell-based, human
CONDITION: Homo sapiens, HEK293-H; concentration increasing full length SMN2 mRNA 1.5-fold relative to vehicle-treated cells; HEK293H cells with SMN2-A minigene, 24 hours, 7-point concentration data; read-out: EC1.5x for production of full length SMN2 mRNA

Known EC (1.5-fold increase) results, listed for orientation:
[[record]]
molecule = "CCN1CCC(c2ccc3nc(-c4ccc5c(cnn5C)c4)cc(=O)n3c2)CC1"
recorded_measurement = "0.3 to 1 µM"

[[record]]
molecule = "Cc1cn2cc(-c3cc(=O)n4nc(C5CCN(CCO)CC5)ccc4n3)cc(Cl)c2n1"
recorded_measurement = "0.3 to 1 µM"

[[record]]
molecule = "Cc1cn2nc(-c3cc(=O)n4cc(C5CCN(CCCF)CC5)ccc4n3)cc2c(C)n1"
recorded_measurement = "< 0.1 µM"

[[record]]
molecule = "CCc1nc(C)cn2nc(-c3cc(=O)n4cc(N5CCN(CC)[C@H](C)C5)ccc4n3)cc12"
recorded_measurement = "< 0.1 µM"

[[record]]
molecule = "COc1ccc(-c2cc(=O)n3cc(C4CCCNC4)ccc3n2)cc1OC (centres unmarked)"
recorded_measurement = "0.3 to 1 µM"


-- ask Input Cc1nc2ccc(-c3cc(=O)n4cc(N5CCN[C@@H](C)C5)ccc4c3)cc2o1 , output reported EC (1.5-fold increase).
-- reply < 0.1 µM

-- ask Hello, please tell me recorded EC (1.5-fold increase) for this one: O=c1cc(-c2cc(F)cc(F)c2)nc2ccc(N3CCNCC3)cn12
-- reply 0.1 to 0.3 µM

-- ask Provide only the value of recorded EC (1.5-fold increase) for Cc1cn2cc(-c3cc(=O)n4cc(N5CCN(C)CC5)ccc4n3)cc(C(F)(F)F)c2n1
-- reply < 0.1 µM

-- ask Quick one: give measured EC (1.5-fold increase) for CCN1CCC(c2ccc3nc(-c4cc(C)c5nc(C)cn5c4)cc(=O)n3c2)CC1
-- reply < 0.1 µM

-- ask Given Cc1cn2cc(-c3cc(=O)n4cc(N5C[C@@H](C)N[C@@H](C)C5)ccc4n3)ccc2n1 , respond with its EC (1.5-fold increase).
-- reply < 0.1 µM

-- ask Determine from records and report EC (1.5-fold increase) for Cc1cn2nc(-c3cc(=O)n4cc(N5CCNCC5)cc(C)c4n3)cc2c(C)n1
-- reply < 0.1 µM

* * *

Listed here are molecules together with their documented EC (1.5-fold increase).
Tested on: SMN2 minigene mRNA (SMN2-A minigene) in HEK293H cells
ASSAY PROTOCOL: SMN2 minigene mRNA splicing RT-qPCR assay in cultured cells
Assay type: cell-based, human
CONDITION: Homo sapiens, HEK293-H; concentration increasing full length SMN2 mRNA 1.5-fold relative to vehicle-treated cells; HEK293H cells with SMN2-A minigene, 24 hours, 7-point concentration data; read-out: EC1.5x for production of full length SMN2 mRNA

Here are 4 molecules together with their reported answers.
[[record]]
molecule = "O=c1cc(-c2ccc(O)c(OC(F)F)c2)nc2ccc(N3CCNCC3)cn12"
recorded_measurement = "0.3 to 1 µM"

[[record]]
molecule = "O=c1cc(-c2ccc3[nH]ccc3c2)nc2ccc(N3CCNCC3)cn12"
recorded_measurement = "1 to 3 µM"

[[record]]
molecule = "COc1ccc(-c2cc(=O)n3cc(N4CC[C@H](N)C4)ccc3n2)cc1OC"
recorded_measurement = "1 to 3 µM"

[[record]]
molecule = "CCc1nc(C)cn2nc(-c3cc(=O)n4cc(OCCN5CCCCC5)ccc4n3)cc12"
recorded_measurement = "0.1 to 0.3 µM"


-- ask Using the record for Cc1nc2ccc(-c3cc(=O)n4cc(N5CCN[C@H](C)C5)ccc4n3)cc2o1 , state its measured EC (1.5-fold increase).
-- reply < 0.1 µM

-- ask // fetch EC (1.5-fold increase) given entry CCCc1nc(C)cn2nc(-c3cc(=O)n4cc(N5CCNCC5)ccc4n3)cc12
-- reply < 0.1 µM

-- ask Input COc1cc(-c2cc(=O)n3cc(N4CCNCC4)ccc3n2)cc(F)c1F , output reported EC (1.5-fold increase).
-- reply 0.1 to 0.3 µM

-- ask Identify measured EC (1.5-fold increase) corresponding to Cc1nc2cc(-c3cc(=O)n4cc(N5CCN[C@@H](C)C5)ccc4n3)ccc2s1
-- reply < 0.1 µM

Data origin, for the record: patent US11753407B2
